Each entry below lists one item and its recorded pIC50 value.
Test system: MV4;11 cells
Test: Cell viability assay (CellTiter-Glo) in MV4;11 cells, alone or with gilteritinib
Type: cell-based
Conditions: Homo sapiens, 72 h; MV4;11 cells, compound alone (without gilteritinib), three days, CellTiter-Glo; read-out: MV4; 11 IC50
pIC50: −log10 of the molar value.
Quantity Measured: pIC50

• O=C1CCC(N2C(=O)c3ccc(NCCCCC(=O)N4CCC(c5ccccc5)CC4)cc3C2=O)C(=O)N1 (stereo not shown) = < 6.00
• O=C1CCC(N2C(=O)c3ccc(NCCCC(=O)N4CCN(c5ccccn5)CC4)cc3C2=O)C(=O)N1 (stereo not shown) = 6.00 to 7.00
• O=C1CCC(N2C(=O)c3ccc(C4CCN(CCCn5cc(-c6cnc7ccccc7n6)cn5)CC4)cc3C2=O)C(=O)N1 (stereo not shown) = < 6.00
• O=C1CCC(N2C(=O)c3ccc(NC[C@H]4C[C@H](n5cc(-c6ccncn6)c(C6CC6)n5)C4)cc3C2=O)C(=O)N1 (stereo partly shown) = 7.00 to 8.00
• O=C1CCC(N2Cc3ccc(CCCCCC(=O)N4CCN(c5ccccn5)CC4)cc3C2=O)C(=O)N1 (stereo not shown) = < 6.00
• O=C(CCn1cc(-c2cnc3ccccc3n2)c(C2CC2)n1)NCc1ccc2c(c1)C(=O)N(C1CCC(=O)NC1=O)C2=O (stereo not shown) = < 6.00
• O=C1CCC(N2C(=O)c3ccc(NCCNc4cccc(N5CCC(c6ccccc6)CC5)c4)cc3C2=O)C(=O)N1 (stereo not shown) = 7.00 to 8.00

----------
Test system: MOLM-13 cells
Experiment: Cell viability assay (CellTiter-Glo) in MOLM-13 cells, alone or with gilteritinib
Assay type: cell-based
Conditions: Homo sapiens, MOLM-13, 72 h, MOLM-13 cells, compound alone (without gilteritinib), three days, CellTiter-Glo; read-out: MOLM-13 IC50
Each entry below lists one item and its recorded IC50 value.
Quantity Measured: IC50

* CNc1cccc(-c2cnn([C@H]3C[C@H](CCCNc4ccc5c(c4)C(=O)N(C4CCC(=O)NC4=O)C5=O)C3)c2)n1 (stereo partly drawn) | 100 to 1000 nM
* O=C1CCC(N2Cc3ccc(CCCCCC(=O)N4CCC(n5cc(-c6ccc7ccccc7n6)cn5)CC4)cc3C2=O)C(=O)N1 (stereo not drawn) | 100 to 1000 nM
* O=C1CCC(N2C(=O)c3ccc(NC[C@H]4C[C@H](n5cc(-c6cnc7cc(N8CCOCC8)ccc7n6)c(C6CC6)n5)C4)cc3C2=O)C(=O)N1 (stereo partly drawn) | 10 to 100 nM
* O=C1CCC(N2C(=O)c3ccc(NC[C@H]4C[C@H](n5cc(-c6cc7nccnc7cn6)c(C6CC6)n5)C4)cc3C2=O)C(=O)N1 (stereo partly drawn) | 100 to 1000 nM
* O=C1CCC(N2C(=O)c3ccc(NCCCCCC(=O)N4CCC(n5cc(-c6cnc7cccc(N8CCNCC8)c7n6)cn5)CC4)cc3C2=O)C(=O)N1 (stereo not drawn) | > 1000 nM
* O=C1CCC(N2C(=O)c3ccc(NCCC[C@H]4C[C@H](n5cc(-c6cnc7ccc(CN8CCNCC8)cc7n6)cn5)C4)cc3C2=O)C(=O)N1 (stereo partly drawn) | 100 to 1000 nM

----------
Tested on: MOLM-13 cells
Test: Cell viability assay (CellTiter-Glo) in MOLM-13 cells, alone or with gilteritinib
Format: cell-based
Details: Homo sapiens, MOLM-13, 72 h, MOLM-13 cells, compound alone (without gilteritinib), three days, CellTiter-Glo; read-out: MOLM-13 IC50
Each entry below lists one item and its recorded IC50 value.
Quantity Measured: IC50

- O=C1CCC(N2C(=O)c3ccc(NC[C@H]4C[C@H](n5cc(-c6cc7[nH]ncc7cn6)c(C6CC6)n5)C4)cc3C2=O)C(=O)N1 (stereo partly drawn): 100 to 1000 nM
- O=C1CCC(N2C(=O)c3ccc(NCCCCS(=O)(=O)N4CCC(n5cc(-c6cnc7ccccc7n6)cn5)CC4)cc3C2=O)C(=O)N1 (stereo not drawn): > 1000 nM
- O=C1CCC(N2Cc3c(Nc4ccnc(Nc5cccc(N6CCN(c7ncccn7)CC6)c5)n4)cccc3C2=O)C(=O)N1 (stereo not drawn): 10 to 100 nM
- O=C(CC12CC(N3CCC(n4cc(-c5cnc6ccccc6n5)cn4)CC3)(C1)C2)NCc1ccc2c(c1)CN(C1CCC(=O)NC1=O)C2=O (stereo not drawn): > 1000 nM
- O=C1CCC(N2Cc3ccc(CCCCCCCn4cc(-c5cnc6ccccc6n5)cn4)cc3C2=O)C(=O)N1 (stereo not drawn): 10 to 100 nM
- O=C1CCC(N2C(=O)c3ccc(NCCCC4CC(n5cc(N6CCOCC6)cn5)C4)cc3C2=O)C(=O)N1 (stereo not drawn): > 1000 nM
- O=C1CCC(N2C(=O)c3ccc(NCCCCn4cc(-c5cnc6ccccc6n5)c(C5CC5)n4)cc3C2=O)C(=O)N1 (stereo not drawn): 100 to 1000 nM
- COc1cccnc1-c1cn([C@H]2C[C@H](CNc3ccc4c(c3)C(=O)N(C3CCC(=O)NC3=O)C4=O)C2)nc1C1CC1 (stereo partly drawn): < 10 nM
- O=C1CCC(N2Cc3cc(CCCCCCCn4cc(-c5cnc6ccccc6n5)cn4)ccc3C2=O)C(=O)N1 (stereo not drawn): > 1000 nM
